- measurement_notes: Intestinal microsomal stability, human
- Type: in vitro ADME
- conditions_used: human intestinal microsomes 1 mg/mL protein, NADPH, 37° C.; read-out: CLint (μL/min/mg protein)
value_kind: microsomal CLint at 1 µM (µL/min/mg)
Write the answer as a number in µL/min/mg, unit excluded.

- molecule: "C[C@H](NC(=O)OC[n+]1cccc(C(=O)NCCO[N+](=O)[O-])c1)C1CCCCC1.O=[N+]([O-])[O-] [reference compound]"
  obs_value: 9

Fill blank: measured microsomal CLint at 1 µM of the molecule CCCCCCCCCCCC(=O)OC[n+]1cccc(C(=O)NCCO[N+](=O)[O-])c1.[Cl-] [Compound 10] is ____. 29

###

- measurement_notes: Plasma stability, rat plasma
- Type: in vitro ADME
- conditions_used: 1 μM, 37° C., parent compound remaining at 60 minutes
value_kind: % PCR (at 60 minutes) (%)
Report the value in % with no unit label.

- compound: "CCOC(=O)[C@H](CCc1ccccc1)N[C@@H](C)C(=O)N1CCC[C@H]1C(=O)O"
  unit_of_measurement: "%"
  obs_value: 11.2

Endpoint output: % PCR (at 60 minutes) of C[C@H](NC(=O)OC[n+]1cccc(C(=O)NCCO[N+](=O)[O-])c1)C1CCCCC1.O=[N+]([O-])[O-] [reference compound] . Value? 36.2

So what does the record say about % PCR (at 60 minutes) for CCCCCCCCCCCC(=O)OC[n+]1cccc(C(=O)NCCO[N+](=O)[O-])c1.[Cl-] ? 0

Which % PCR (at 60 minutes) reading was recorded for the compound O=C(NCCO[N+](=O)[O-])c1cccnc1 ? 114

###

Reported half-life at 1 µM is given for each of the following compounds.
- measurement_notes: Intestinal microsomal stability, human
- Format: in vitro ADME
- conditions_used: human intestinal microsomes 1 mg/mL protein, NADPH, 37° C.
- Experimental: Each test compound and assay control (final concentration of […]) were incubated with intestinal microsomes (final protein concentration of 1 mg/mL) from rats, dogs or humans at 37° C. in the presence of NADPH for 0.5, 5, 10, 15, 30 and 60 minutes. […] Samples were then centrifuged at 4000 rpm for 10 minutes and the supernatant was analyzed by LC-MS/MS. The in vitro half-life (t1/2) and intrinsic clearance (CLint) were calculated for the test compounds and the assay control.

Sample answers from the record:
- compound: "CCCCCCCCCCCC(=O)OC[n+]1cccc(C(=O)NCCO[N+](=O)[O-])c1.[Cl-]"
  half-life at 1 µM: "0.4 h"
- compound: "O=C(NCCO[N+](=O)[O-])c1ccc[n+](COC(=O)N2CCCC2C(=O)O)c1.[Cl-] (stereo not shown)"
  half-life at 1 µM: "> 1 h"

GET /values?readout=half-life at 1 µM&item= C[C@H](NC(=O)OC[n+]1cccc(C(=O)NCCO[N+](=O)[O-])c1)C1CCCCC1.O=[N+]([O-])[O-] [reference compound] > 1 h

Endpoint output: half-life at 1 µM of CCC(C)(C)C(=O)OC[n+]1cccc(C(=O)NCCO[N+](=O)[O-])c1.[Cl-] . Value? > 1 h

###

Each entry below lists one item and its recorded microsomal CLint at 1 µM value.
- measurement_notes: Intestinal microsomal stability, dog
- Format: in vitro ADME
- conditions_used: dog intestinal microsomes 1 mg/mL protein, NADPH, 37° C.; read-out: CLint (μL/min/mg protein)
Provide only the numeric value, understood in µL/min/mg.

Would you kindly share the measured microsomal CLint at 1 µM for CCCCCCCCCCCC(=O)OC[n+]1cccc(C(=O)NCCO[N+](=O)[O-])c1.[Cl-] ? 15

What does the data say about its microsomal CLint at 1 µM? Entry: CCC(C)(C)C(=O)OC[n+]1cccc(C(=O)NCCO[N+](=O)[O-])c1.[Cl-] 9

Recorded values, source patent US20250145571A1.
